Tested on: K4 kissing-loop RNA reporter;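 note: bound reporter read as fluorescence of individual clusters on recovered sequencing chips by microscopy, with normalized cluster intensities fitted with a binding model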
Experiment: apparent KD of K4 kissing-loop reporter; higher = weaker reporter binding
Details: Eterna round: R107; input ligand: none
Overview of recorded apparent KD of K4 kissing-loop reporter for various sequences
METRIC: apparent KD of K4 kissing-loop reporter (nM)

RECORD SEQUENCE	MEASURED
AUAAUAAAGACGGCCGCCACUGAGAGUAGUGAUGUUACUCUUUUCCUUUAGAAAUAAUAUUUUAUCAGGACCGGGUUUUUUGAAU [JR_Nu_ExcTryptoB_Sub026]	84.8
GUGGAAUUAUGAAAGUGGUUUUAUAAGGAAGGAGCGGCCGAAAGGCCAGGUAGGUCGCCUAUUGACAGUGAUGUUGUUAUAUGGA [#13]	103
UAAAAUAAAUAAUAGAGAGCGUUACUCGAAGGAGCGACGAAUUCGUCAGGUAGGUCGCGAGUGAUGUUCGCAAAUACGCUCUCAU [AK2 Exc Arginine A]	850
GCAGUGAUGUUGCGAAUCGGCCAUGAUACAGAGGAUAUCGUGCCUUCGAGAAGGUUGUAUAGAGGAUACGAUAUUAUAAAUGACG [Same State FMN A GF 1]	432
ACACUUUACGUAGGAUAUGCGACGAGUGAUGUUCGUCAGGCGGCUUUAGAUUAUACAAGCCGCCUAGCAGAAGGACGGGCAGUGU [Araar]	172
AACUGUCAAGGACAACAUUACUGAGGUGAUACCAGCAUCGAAAGAUGCCCUUGGCAGCACCGACUUGCAGUGAUGUUGCAAGUAA [BrourdMod 11 - Jieux - Exclusion - Theophylline A]	249
